System: KRAS patient-derived spheroids with HUVEC/MSC, viability
assay.explanation: Anticancer human tumor 941728-121-R-J1-PDC patient-derived lung adenocarcinoma cell line growth inhibition [KRAS2]; active = viability on the fitted dose curve at most 10% of control; inactive = the rest
measurement.setup: second compound 3.16 µM; first compound 0.0316 µM
Excerpt: Multicellular complex tumor spheroid response to RAS pathway inhibitors in combination with a targeted agents in patient-derived cell lines with oncogenic KRAS variants from multiple cancer types A high-throughput screen of multi-cell type tumor spheroids was designed to identify active combinations of targeted small molecules and KRAS pathway inhibitors. […] Compounds. […] If the clinical Cmax for an agent had not been determined, the highest concentration tested was 10 microM. […]
Thanks in advance; please answer with one of these: label 1 (active), label 0 (inactive)

Input: Hey, what did the test say about CCN1CCN(Cc2ccc(Nc3ncc(F)c(-c4cc(F)c5nc(C)n(C(C)C)c5c4)n3)nc2)CC1 + C=CC(=O)N1CCN(c2nc(OCC3CCCN3C)nc3c2CCN(c2cccc4cccc(C)c24)C3)CC1CC#N ?
Output: label 1

***
Input: Query: recorded result category for CC1COCCN1c1cc(-c2ccnn2C)c2ccnc(-c3ccn[nH]3)c2n1 (configuration not stated) + C=CC(=O)N1CCN(c2nc(OCC3CCCN3C)nc3c2CCN(c2cccc4cccc(C)c24)C3)CC1CC#N in this test
Output: label 1

Input: Short answer needed: outcome of this test for CC(=O)OC12COC1CC(O)C1(C)C(=O)C(O)C3=C(C)C(OC(=O)C(O)C(NC(=O)OC(C)(C)C)c4ccccc4)CC(O)(C(OC(=O)c4ccccc4)C21)C3(C)C (configuration not stated) + C=CC(=O)N1CCN(c2nc(OCC3CCCN3C)nc3c2CCN(c2cccc4cccc(C)c24)C3)CC1CC#N ?
Output: label 0

Input: GET /call?item= CC(C)n1nc(-c2ccc3oc(N)nc3c2)c2c(N)ncnc21 + C=CC(=O)N1CCN(c2nc(=O)n(-c3c(C)ccnc3C(C)C)c3nc(-c4c(O)cccc4F)c(F)cc23)C(C)C1 returns the recorded outcome of this test.
Output: label 1

Input: Called result for CC1(C)CCC(CN2CCN(c3ccc(C(=O)NS(=O)(=O)c4ccc(NCC5CCOCC5)c([N+](=O)[O-])c4)c(Oc4cnc5[nH]ccc5c4)c3)CC2)=C(c2ccc(Cl)cc2)C1 + C=CC(=O)N1CCN(c2nc(=O)n(-c3c(C)ccnc3C(C)C)c3nc(-c4c(O)cccc4F)c(F)cc23)C(C)C1
Output: label 0

###

System: KRAS patient-derived spheroids with HUVEC/MSC, viability
assay.explanation: Anticancer human tumor 941728-121-R-J1-PDC cell line growth inhibition [KRAS2];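 note: spheroids exposed to agents for seven days before readout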
measurement.setup: second compound 3.16 µM; first compound 0.0316 µM; stronger effect = lower value
Description: Multicellular complex tumor spheroid response to RAS pathway inhibitors in combination with a targeted agents in patient-derived cell lines with oncogenic KRAS variants from multiple cancer types A high-throughput screen of multi-cell type tumor spheroids was designed to identify active combinations of targeted small molecules and KRAS pathway inhibitors. […] Compounds. […] If the clinical Cmax for an agent had not been determined, the highest concentration tested was 10 microM. […]
Records here are stratified by viability, T/C; strata: low: < 1%; intermediate: ≥ 1% and < 30%; high: ≥ 30%

As a guide, the following entries are already answered.
Input: Input O=C(c1cc(Cc2n[nH]c(=O)c3ccccc23)ccc1F)N1CCN(C(=O)C2CC2)CC1 + C=CC(=O)N1CCN(c2nc(=O)n(-c3c(C)ccnc3C(C)C)c3nc(-c4c(O)cccc4F)c(F)cc23)C(C)C1 ; output its category
Output: high

Input: Tag the class for CC(=O)Nc1cccc(-n2c(=O)n(C3CC3)c(=O)c3c(Nc4ccc(I)cc4F)n(C)c(=O)c(C)c32)c1 + COc1cc2nc(C)nc(NC(C)c3cc(N)cc(C(F)(F)F)c3)c2cc1OC1CCOC1
Output: intermediate

Input: Into which bin does this molecule go? CC(C)n1nc(-c2ccc3oc(N)nc3c2)c2c(N)ncnc21 + COc1cc2nc(C)nc(NC(C)c3cc(N)cc(C(F)(F)F)c3)c2cc1OC1CCOC1
Output: intermediate

Others:
Input: Assign a category based on measured viability, T/C for CC(=O)Nc1cccc(-n2c(=O)n(C3CC3)c(=O)c3c(Nc4ccc(I)cc4F)n(C)c(=O)c(C)c32)c1 + C=CC(=O)N1CCN(c2nc(=O)n(-c3c(C)ccnc3C(C)C)c3nc(-c4c(O)cccc4F)c(F)cc23)C(C)C1 and give only the class name.
Output: intermediate

Input: // bin(item) where item = CC1OCC2(CCN(c3cnc(Sc4ccnc(N)c4Cl)c(N)n3)CC2)C1N (stereo not given) + C=CC(=O)N1CCN(c2nc(=O)n(-c3c(C)ccnc3C(C)C)c3nc(-c4c(O)cccc4F)c(F)cc23)C(C)C1
Output: intermediate

Input: State the band of CC1(C)CCC(CN2CCN(c3ccc(C(=O)NS(=O)(=O)c4ccc(NCC5CCOCC5)c([N+](=O)[O-])c4)c(Oc4cnc5[nH]ccc5c4)c3)CC2)=C(c2ccc(Cl)cc2)C1 + C=CC(=O)N1CCN(c2nc(OCC3CCCN3C)nc3c2CCN(c2cccc4cccc(C)c24)C3)CC1CC#N
Output: low

###

Test system: KRAS patient-derived spheroids with HUVEC/MSC, viability
assay.explanation: Anticancer human tumor 941728-121-R-J1-PDC cell line growth inhibition [KRAS2];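 note: spheroids exposed to agents for seven days before readout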
measurement.setup: second compound 0.0316 µM; first compound 0.01 µM; stronger effect = lower value
Reported viability, T/C is given for each of the following compounds.

Input: Request - read-out viability, T/C | tested on KRAS patient-derived spheroids with HUVEC/MSC, viability | compound CC(=O)Nc1cccc(-n2c(=O)n(C3CC3)c(=O)c3c(Nc4ccc(I)cc4F)n(C)c(=O)c(C)c32)c1 + C=CC(=O)N1CCN(c2nc(OCC3CCCN3C)nc3c2CCN(c2cccc4cccc(C)c24)C3)CC1CC#N
Output: 24.2%

Input: I'm curious: which viability, T/C was measured for CN(C)C/C=C/C(=O)Nc1cc2c(Nc3ccc(F)c(Cl)c3)ncnc2cc1O[C@H]1CCOC1 + C=CC(=O)N1CCN(c2nc(OCC3CCCN3C)nc3c2CCN(c2cccc4cccc(C)c24)C3)CC1CC#N tested on KRAS patient-derived spheroids with HUVEC/MSC, viability?
Output: 23.3%

Continue with the compound presented below.
Input: Which measured viability, T/C belongs to Cn1ncnc1[C@H]1c2n[nH]c(=O)c3cc(F)cc(c23)N[C@@H]1c1ccc(F)cc1 + C=CC(=O)N1CCN(c2nc(OCC3CCCN3C)nc3c2CCN(c2cccc4cccc(C)c24)C3)CC1CC#N , tested on KRAS patient-derived spheroids with HUVEC/MSC, viability?
Output: 19.7%

###

System: KRAS patient-derived spheroids with HUVEC/MSC, viability
assay.explanation: Anticancer human tumor 941728-121-R-J1-PDC cell line growth inhibition [KRAS2];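 note: spheroids exposed to agents for seven days before readout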
measurement.setup: curve of first compound; second compound 1 µM
endpoint.name: IC50

// known answers, use as guide
Input: State the recorded IC50 for this entry: COc1cc(Nc2ncc3c(n2)-c2ccc(Cl)cc2C(c2c(F)cccc2OC)=NC3)ccc1C(=O)O + C=CC(=O)N1CCN(c2nc(OCC3CCCN3C)nc3c2CCN(c2cccc4cccc(C)c24)C3)CC1CC#N
Output: < 31.6 nM

Input: Name the recorded IC50 for CC(C)NCC(C(=O)N1CCN(c2ncnc3c2C(C)CC3O)CC1)c1ccc(Cl)cc1 (stereo unspecified) + CNCc1ccccc1-c1csc(C(C)Nc2nc(C)nc3cc(OC)c(OC)cc23)c1 .
Output: < 31.6 nM

Input: Tell me the measured IC50 of CCNC(=O)CC1N=C(c2ccc(Cl)cc2)c2cc(OC)ccc2-n2c(C)nnc21 (stereo unspecified) + CNCc1ccccc1-c1csc(C(C)Nc2nc(C)nc3cc(OC)c(OC)cc23)c1 , please.
Output: < 31.6 nM

Input: Report IC50 for CC(C)NCC(C(=O)N1CCN(c2ncnc3c2C(C)CC3O)CC1)c1ccc(Cl)cc1 (stereo unspecified) + COc1cc2nc(C)nc(NC(C)c3cc(N)cc(C(F)(F)F)c3)c2cc1OC1CCOC1 please.
Output: < 31.6 nM

Input: Which IC50 is reported for this molecule? COC(=O)c1ccc2c(C(=Nc3ccc(N(C)C(=O)CN4CCN(C)CC4)cc3)c3ccccc3)c(O)[nH]c2c1 + COc1cc2nc(C)nc(NC(C)c3cc(N)cc(C(F)(F)F)c3)c2cc1OC1CCOC1
Output: < 31.6 nM

Input: I'd like to know its IC50. The molecule in question is CC(C)n1nc(-c2ccc3oc(N)nc3c2)c2c(N)ncnc21 + CC1OCC2(CCN(c3cnc(Sc4ccnc(N)c4Cl)c(N)n3)CC2)C1N
Output: < 0.316 nM

Input: Would you kindly share the measured IC50 for CC1COCCN1c1cc(-c2ccnn2C)c2ccnc(-c3ccn[nH]3)c2n1 (stereo unspecified) + CNCc1ccccc1-c1csc(C(C)Nc2nc(C)nc3cc(OC)c(OC)cc23)c1 ?
Output: < 10 nM

Input: Bench note: what IC50 did CCNC(=O)CC1N=C(c2ccc(Cl)cc2)c2cc(OC)ccc2-n2c(C)nnc21 (stereo unspecified) + COc1cc2nc(C)nc(NC(C)c3cc(N)cc(C(F)(F)F)c3)c2cc1OC1CCOC1 show?
Output: < 31.6 nM

Others:
Input: I would be grateful if you could share the reported IC50 for CCNC(=O)CC1N=C(c2ccc(Cl)cc2)c2cc(OC)ccc2-n2c(C)nnc21 (stereo unspecified) + CC1OCC2(CCN(c3cnc(Sc4ccnc(N)c4Cl)c(N)n3)CC2)C1N .
Output: < 31.6 nM

Input: Would you kindly share the measured IC50 for CC1COCCN1c1cc(-c2ccnn2C)c2ccnc(-c3ccn[nH]3)c2n1 (stereo unspecified) + C=CC(=O)N1CCN(c2nc(=O)n(-c3c(C)ccnc3C(C)C)c3nc(-c4c(O)cccc4F)c(F)cc23)C(C)C1 ?
Output: < 10 nM

Input: Reported IC50, molecule COc1cc2nccc(Oc3ccc(NC(=O)C4(C(=O)Nc5ccc(F)cc5)CC4)cc3)c2cc1OC + CNCc1ccccc1-c1csc(C(C)Nc2nc(C)nc3cc(OC)c(OC)cc23)c1 : ____
Output: < 31.6 nM
